system: HL-60; assay: Antiproliferative activity, MTT assay; format: cell-based, human; details: read-out: IC50 HL-60; 48 h of treatment; mean ± SEM
pIC50: −log10 of the molar value.

SMILES NOTATION: CCCNC(=O)Nc1ccc(S(=O)(=O)Oc2cccnc2C(C)C)cc1.Cl
TEST SYSTEM: HL-60
QUAL: =
pIC50: 5.10
//
SMILES NOTATION: CC(C)c1ncccc1OS(=O)(=O)c1ccc(NC(=O)NCCCl)cc1
TEST SYSTEM: HL-60
QUAL: =
pIC50: 4.57
//
SMILES NOTATION: CCCNC(=O)Nc1ccc(S(=O)(=O)Oc2cnccc2Br)cc1.Cl
TEST SYSTEM: HL-60
QUAL: =
pIC50: 4.40
//
SMILES NOTATION: CCNC(=O)Nc1ccc(S(=O)(=O)Oc2cccnc2I)cc1
TEST SYSTEM: HL-60
QUAL: =
pIC50: 4.60
//
SMILES NOTATION: CCCNC(=O)Nc1ccc(S(=O)(=O)Oc2cnccc2I)cc1
TEST SYSTEM: HL-60
QUAL: =
pIC50: 4.74
//
SMILES NOTATION: O=C(NCCCl)Nc1ccc(S(=O)(=O)Oc2cccnc2I)cc1
TEST SYSTEM: HL-60
QUAL: =
pIC50: 5.16
//
SMILES NOTATION: CCNC(=O)Nc1ccc(S(=O)(=O)Oc2cccnc2C)cc1
TEST SYSTEM: HL-60
QUAL: =
pIC50: 4.30
//
SMILES NOTATION: CCNC(=O)Nc1ccc(S(=O)(=O)Oc2cccnc2Br)cc1.Cl
TEST SYSTEM: HL-60
QUAL: <
pIC50: 4.00
//
SMILES NOTATION: CCCNC(=O)Nc1ccc(S(=O)(=O)Oc2cnccc2I)cc1.Cl
TEST SYSTEM: HL-60
QUAL: <
pIC50: 4.30

* * *

experiment: Metabolic stability in liver microsomes; type: in vitro ADME, mouse; details: mouse, liver microsomes, pH 7.4
Measured half-life at 4 µM by item
OBSERVATION TYPE: half-life at 4 µM

SMILES NOTATION: CCNC(=O)Nc1ccc(S(=O)(=O)Oc2cccnc2C(C)C)cc1.Cl
OBSERVED RESULT: 0.95 h
//
SMILES NOTATION: CCNC(=O)Nc1ccc(S(=O)(=O)Oc2cccnc2I)cc1.Cl
OBSERVED RESULT: 1.33 h

* * *

tested on: M21; test: Antiproliferative activity, SRB assay; assay type: cell-based, human; details: read-out: IC50 M21; 48 h of treatment; mean ± SEM
pIC50: −log10 of the molar value.
Measured pIC50 by item
OBSERVATION TYPE: pIC50

SMILES NOTATION: CCCNC(=O)Nc1ccc(S(=O)(=O)Oc2cccnc2Br)cc1
TEST SYSTEM: M21
OBSERVED RESULT: 4.62

SMILES NOTATION: CCCNC(=O)Nc1ccc(S(=O)(=O)Oc2cnccc2I)cc1.Cl
TEST SYSTEM: M21
OBSERVED RESULT: 4.68

SMILES NOTATION: CCCNC(=O)Nc1ccc(S(=O)(=O)Oc2cnccc2I)cc1
TEST SYSTEM: M21
OBSERVED RESULT: 5.01

SMILES NOTATION: Cl.O=C(NCCCl)Nc1ccc(S(=O)(=O)Oc2cccnc2I)cc1
TEST SYSTEM: M21
OBSERVED RESULT: 4.82

SMILES NOTATION: CC(C)c1ncccc1OS(=O)(=O)c1ccc(NC(=O)NCCCl)cc1.Cl
TEST SYSTEM: M21
OBSERVED RESULT: 5.01

SMILES NOTATION: CCNC(=O)Nc1ccc(S(=O)(=O)Oc2cccnc2C)cc1
TEST SYSTEM: M21
OBSERVED RESULT: 4.10

SMILES NOTATION: CCNC(=O)Nc1ccc(S(=O)(=O)Oc2cnccc2C)cc1.Cl
TEST SYSTEM: M21
OBSERVED RESULT: 4.46

SMILES NOTATION: CCCNC(=O)Nc1ccc(S(=O)(=O)Oc2cnccc2C)cc1.Cl
TEST SYSTEM: M21
OBSERVED RESULT: 4.25

SMILES NOTATION: CCCNC(=O)Nc1ccc(S(=O)(=O)Oc2cccnc2C(C)C)cc1.Cl
TEST SYSTEM: M21
OBSERVED RESULT: 4.70

SMILES NOTATION: CCNC(=O)Nc1ccc(S(=O)(=O)Oc2cccnc2Br)cc1
TEST SYSTEM: M21
OBSERVED RESULT: 4.92

SMILES NOTATION: CCNC(=O)Nc1ccc(S(=O)(=O)Oc2cnccc2I)cc1.Cl
TEST SYSTEM: M21
OBSERVED RESULT: 4.96

SMILES NOTATION: CCCNC(=O)Nc1ccc(S(=O)(=O)Oc2cccnc2I)cc1
TEST SYSTEM: M21
OBSERVED RESULT: 4.77

SMILES NOTATION: CCNC(=O)Nc1ccc(S(=O)(=O)Oc2cnccc2Br)cc1
TEST SYSTEM: M21
OBSERVED RESULT: 4.68

SMILES NOTATION: Cl.O=C(NCCCl)Nc1ccc(S(=O)(=O)Oc2cccnc2Br)cc1
TEST SYSTEM: M21
OBSERVED RESULT: 4.52

* * *

Measured half-life at 4 µM by item
experiment: Metabolic stability in liver microsomes; type: in vitro ADME; conditions: human, pH 7.4

SMILES NOTATION: CCNC(=O)Nc1ccc(S(=O)(=O)Oc2cccnc2I)cc1.Cl
half-life at 4 µM (h): 3.6
--
SMILES NOTATION: CCNC(=O)Nc1ccc(S(=O)(=O)Oc2cccnc2C(C)C)cc1.Cl
half-life at 4 µM (h): 1.48

* * *

assay: physchem; settings: ultrapure water, 37 °C, kinetic from dmso stock

SMILES NOTATION: CCNC(=O)Nc1ccc(S(=O)(=O)Oc2cnccc2I)cc1.Cl
solubility at 24 h / µg/mL: 165
--
SMILES NOTATION: CCNC(=O)Nc1ccc(S(=O)(=O)Oc2cccnc2I)cc1
solubility at 24 h / µg/mL: 57
--
SMILES NOTATION: Cl.O=C(NCCCl)Nc1ccc(S(=O)(=O)Oc2cnccc2I)cc1
solubility at 24 h / µg/mL: 154
--
SMILES NOTATION: CCNC(=O)Nc1ccc(S(=O)(=O)Oc2cccnc2C(C)C)cc1
solubility at 24 h / µg/mL: 40
--
SMILES NOTATION: CCNC(=O)Nc1ccc(S(=O)(=O)Oc2cccnc2Br)cc1
solubility at 24 h / µg/mL: 64
--
SMILES NOTATION: CC(C)c1ncccc1OS(=O)(=O)c1ccc(NC(=O)NCCCl)cc1
solubility at 24 h / µg/mL: 41
--
SMILES NOTATION: CCNC(=O)Nc1ccc(S(=O)(=O)Oc2cnccc2Br)cc1.Cl
solubility at 24 h / µg/mL: 122
--
SMILES NOTATION: CCCNC(=O)Nc1ccc(S(=O)(=O)Oc2cccnc2C(C)C)cc1.Cl
solubility at 24 h / µg/mL: 26

* * *

tested on: THP-1; experiment: Antiproliferative activity, MTT assay; type: cell-based, human; details: read-out: IC50 THP-1; 48 h of treatment; mean ± SEM
Hi! Just check whether IC50 is below 4 µM. Below gives Yes, equal or above gives No.

SMILES NOTATION: CCNC(=O)Nc1ccc(S(=O)(=O)Oc2cccnc2C)cc1
CATEGORY: No
--
SMILES NOTATION: CCCNC(=O)Nc1ccc(S(=O)(=O)Oc2cccnc2C(C)C)cc1.Cl
CATEGORY: Yes
--
SMILES NOTATION: CCNC(=O)Nc1ccc(S(=O)(=O)Oc2cnccc2C)cc1
CATEGORY: No
--
SMILES NOTATION: CCNC(=O)Nc1ccc(S(=O)(=O)Oc2cccnc2I)cc1
CATEGORY: Yes
--
SMILES NOTATION: CCNC(=O)Nc1ccc(S(=O)(=O)Oc2cccnc2Br)cc1
CATEGORY: No
--
SMILES NOTATION: CCCNC(=O)Nc1ccc(S(=O)(=O)Oc2cccnc2C)cc1.Cl
CATEGORY: No
--
SMILES NOTATION: CCNC(=O)Nc1ccc(S(=O)(=O)Oc2cccnc2C(C)C)cc1.Cl
CATEGORY: No
--
SMILES NOTATION: CCNC(=O)Nc1ccc(S(=O)(=O)Oc2cccnc2C(C)C)cc1
CATEGORY: Yes
--
SMILES NOTATION: CCCNC(=O)Nc1ccc(S(=O)(=O)Oc2cccnc2Br)cc1
CATEGORY: No
--
SMILES NOTATION: Cl.O=C(NCCCl)Nc1ccc(S(=O)(=O)Oc2cnccc2I)cc1
CATEGORY: Yes
--
SMILES NOTATION: CCCNC(=O)Nc1ccc(S(=O)(=O)Oc2cnccc2I)cc1.Cl
CATEGORY: Yes
--
SMILES NOTATION: CCNC(=O)Nc1ccc(S(=O)(=O)Oc2cnccc2Br)cc1.Cl
CATEGORY: No

Source listed as paper PMC12302228.
